Kindly find below IC50 information for Tyrosine-protein kinase JAK2 (Homo sapiens, UniProt O60674) taken from the literature.
metric: IC50

1. Cc1cc(C)c(OC[C@H](O)CNc2cc[nH]c(=O)c2-c2nc3cc4c(cc3[nH]2)C(=O)N(C2CCN(C)CC2)C4=O)c(CS(C)(=O)=O)c1 ... 0.5 to 5 µM
2. Cc1cc2ccc1-c1ccnc(n1)Nc1cccc(c1)COCCCCNC2=O ... 1 to 10 µM
3. N#CCN1CC2(CCC(c3cccc4nc(NC(=O)[C@H]5CC5(F)F)nn34)CC2)C1 ... 3.67 µM
4. N#CCC(C1CC1)n1cc(-c2ccnc(Nc3ccc(C(=O)N4C5CC6CC4CC(C5)O6)cc3)n2)cn1 (racemic) ... < 0.1 µM
5. CC(=O)N1CCN(C(=O)c2ccc(Nc3nccc(-c4cnn(C(CC#N)C5CCCC5)c4)n3)cc2)CC1 (racemic) ... < 0.1 µM
6. CCN1CCN(Cc2cc(NC(=O)c3cc(-c4ccc5nc(NC(=O)C6CC6)cn5n4)c(C)cc3C)cc(C(F)(F)F)c2)CC1 ... 8.76 µM
7. Cc1ccc(C(=O)Nc2nnc(C(F)(F)F)s2)cc1-c1ccc2c(c1)[nH]c1ncncc12 ... > 1 µM

###

Kindly find below IC50 information for Tyrosine-protein kinase JAK2 (Homo sapiens, UniProt O60674) taken from the literature.
metric: IC50

1) O=S(=O)(c1cccc2cccnc12)n1ccc2cnc(Nc3ccc(N4CC5CC4CN5)cc3)cc21 (stereo not shown) ... > 1000 nM
2) CNC(=O)c1n[nH]c2nc(-c3cc(F)c(O)cc3CC(F)(F)F)nc(NCc3ccccc3N(C)S(N)(=O)=O)c12 ... 31.2 nM
3) Cc1ccc(NC(=O)Nc2ccc(F)cc2F)cc1-c1ccc2nc(NC(=O)C3CC3)sc2n1 ... > 10000 nM
4) CCn1c(C(=O)N(C2CC2)C2CC2)cc2c3c(ncn3C)c(Nc3cc(C)n(C)n3)nc21 ... 1 nM

###

Kindly find below pIC50 information for Tyrosine-protein kinase JAK2 (Homo sapiens, UniProt O60674) taken from the literature.
pIC50: −log10 of the molar value.
metric: pIC50

1) COc1cc(Nc2ncnc(-c3ccc(O[C@H]4CCN(C(=O)CO)C[C@H]4F)c(C#N)c3)n2)ccc1N1CCC(N2CCOCC2)CC1 ... 7.55
2) N#Cc1cc(-c2ncnc(Nc3ccc(N4CCN(C5COC5)CC4)cc3)n2)ccc1OC1CNC(=O)C(F)(F)C1 (stereo not drawn) ... 6.82
3) CS(=O)(=O)N1CCC(C(CC#N)n2cc(-c3ccnc(Nc4ccc(N5CCOCC5)cc4)n3)cn2)CC1 (racemic) ... > 7.00
4) COc1nsc(NC(=O)N2C[C@H]3C[C@H](N(C)c4ccnc5[nH]ccc45)C[C@H]3C2)n1 ... 6.75
5) Cc1cc(C)c(OC[C@H](O)CNc2cc[nH]c(=O)c2-c2nc3cc4c(cc3[nH]2)C(=O)N(C2CCN(C)CC2)C4=O)cc1Cl ... 5.30 to 6.30
6) C[C@H]1CN(C)CCN1c1ccc(Nc2ncnc(-c3ccc(O[C@H]4CCN(C(=O)CO)C[C@H]4F)c(C#N)c3)n2)cc1 ... 6.74
7) COc1cnc2nc1NCCCCCNC(=O)c1ccc(cc1)-c1cnc(F)c(c1)N2 ... 5.00 to 6.00
8) Cc1cnc(Nc2ccc(C(=O)N3CCC(O)CC3)cc2)nc1-c1cnn(C(CC#N)C2CCCC2)c1 (racemic) ... > 7.00
9) COc1cnc(Nc2cccc(-c3ccnc(C)n3)c2)nc1-c1cnn(C(CC#N)C2CCCC2)c1 (racemic) ... > 7.00
10) Cn1cc(-c2cc3nccn3c(-c3cnn(C4(CC#N)COC4)c3)n2)cn1 ... 7.00 to 8.00
11) N#CCC1(n2cc(-c3ncnc4[nH]ccc34)cn2)CN(C2CCN(C(=O)c3ncco3)CC2)C1 ... 7.30 to 8.00
12) C[C@H](Nc1cccc(Nc2ccc[nH]c2=O)n1)c1ccc(F)cn1 ... > 7.00
13) N#CCC1(n2cc(-c3c(F)cnc4[nH]ccc34)cn2)CN(C2CCN(C(=O)c3cncc(C(F)(F)F)n3)CC2)C1 ... 7.30 to 8.00
14) O=C1NCCCCOCc2cc(ccc2N2CCCCC2)Nc2nccc(n2)-c2ccc1cc2F ... 7.00 to 7.96
15) CCC(=O)c1cnc(Nc2ccc(C(C)NCC(F)F)cn2)cc1Nc1cccc(-c2ncn(C)n2)c1OC (stereo not drawn) ... 6.30 to 7.30

###

Kindly find below pIC50 information for Tyrosine-protein kinase JAK2 (Homo sapiens, UniProt O60674) taken from the literature.
pIC50: −log10 of the molar value.
metric: pIC50

1) N#Cc1cc(-c2ncnc(Nc3ccc(N4CCN(C5COC5)CC4)cc3)n2)ccc1OC1CCN(C(=O)c2ccc[nH]2)CC1(F)F (centres unmarked) ... 6.23
2) N#Cc1cc(-c2ncnc(Nc3ccc(N4CCN(C5COC5)CC4)cc3)n2)ccc1O[C@H]1CCC(=O)NC1 ... 6.76
3) N#Cc1ccc(N2CCC(Nc3nc(Nc4ccc5c(c4)nnn5CC4CC4)ncc3Cl)CC2)nc1 ... 8.40
4) C[C@H](O)C(=O)N1CC[C@H](Oc2ccc(-c3ncnc(Nc4ccc5c(c4)CNC5)n3)cc2C#N)[C@H](F)C1 ... 6.18
5) CCn1c(C(=O)N(C2CC2)C2CC2)cc2c3c(ncn3C)c(Nc3nc4cc[nH]c(=O)c4s3)nc21 ... 9.27
6) N#Cc1cc(-c2ncnc(Nc3ccc(N4CCN(C5COC5)CC4)cc3)n2)ccc1OC1CNCC1(F)F (centres unmarked) ... 6.51
7) N#Cc1cc(-c2ncnc(Nc3ccc(N4CCN(C5COC5)CC4)cc3)n2)ccc1O[C@H]1CCN(C(=O)c2cnco2)C[C@H]1F ... 6.11
8) N#Cc1cc(-c2ncnc(Nc3ccc(N4CCN(C5COC5)CC4)cc3)n2)ccc1OC1CCN(C(=O)CNC=O)CC1 ... 6.39
9) CCN(c1nccnc1CNc1nc(-c2cc(F)c(O)cc2CC(F)(F)F)cc2[nH]nc(C(N)=O)c12)S(C)(=O)=O ... 7.79
10) CCN1CCN(Cc2cc(NC(=O)c3ccc(C)c(-c4cn5cc(NC(=O)C6CC6)nc5cn4)c3)cc(C(F)(F)F)c2)CC1 ... 6.02
11) C[C@@H]1C[C@@H](O)CN1c1ccc(-c2ncnc(Nc3ccc(N4CCN(C5COC5)CC4)cc3)n2)cc1C#N ... 7.33
12) CCn1c(C(=O)N(C2CC2)C2CC2)cc2c3c(ncn3C)c(Nc3nc(C(C)(C)C)cs3)nc21 ... 7.52
13) N#Cc1cc(-c2ncnc(Nc3ccc(N4CCN(C5COC5)CC4)c(F)c3)n2)ccc1OC1CCOCC1 ... 6.01

###

Kindly find below IC50 information for Tyrosine-protein kinase JAK2 (Homo sapiens, UniProt O60674) taken from the literature.
metric: IC50

1) CN1CCN(C(=O)c2ccc3c(c2)[nH]c2c(C(N)=O)cc(-c4ccc(Cl)c(Cl)c4)cc23)CC1 ... 6 nM
2) COCC(C)NC(=O)c1ccc(Nc2ncc(C)c(-c3cnn(C(CC#N)C4CCCC4)c3)n2)cc1 (mixture of isomers) ... < 100 nM
3) N#CCC1(n2ccc(-c3ncnc4[nH]ccc34)c2)CN(C2CCN(C(=O)c3ccc(C#N)cc3F)CC2)C1 ... 50 to 100 nM
4) Cn1ccc(S(=O)(=O)Nc2cccc(Nc3nccc(-c4cnn(C(CC#N)C5CCCC5)c4)n3)c2)n1 (racemic) ... < 100 nM

###

pIC50: −log10 of the molar value.
Kindly find below pIC50 information for Tyrosine-protein kinase JAK2 (Homo sapiens, UniProt O60674) taken from the literature.
metric: pIC50

1) CCc1cc(O)c(F)cc1-c1cc2[nH]nc(C(N)=O)c2c(NCc2ccc(O)cc2N(C)S(C)(=O)=O)n1 ... 8.24
2) Cc1cc(Nc2ncnc(-c3ccc(O[C@H]4CCN(C(=O)CO)C[C@H]4F)c(C#N)c3)n2)ccc1N1CCN(C2COC2)CC1 ... 7.19
3) N#CCC1CCN(n2c(N)nc3cnc4[nH]ccc4c32)CC1 ... 9.15
4) CC(O)Cc1nc2cc(Nc3ncc(Cl)c(NC4CCN(c5ccc(C#N)cn5)CC4)n3)ccn2n1 (centres unmarked) ... 8.30

###

Kindly find below pIC50 information for Tyrosine-protein kinase JAK2 (Homo sapiens, UniProt O60674) taken from the literature.
pIC50: −log10 of the molar value.
metric: pIC50

1. N#CCC1(n2cc(-c3nc(C4CC4)cc4nccn34)cn2)CN(CC(F)(F)F)C1 ... < 6.00
2. Cc1cnc2nc1Nc1cccc(c1)COCCCC(=O)N1CCN(CC1)c1cnc(F)c(c1)N2 ... 6.00 to 7.00
3. CN1CCC(N2C(=O)c3cc4nc(-c5c(NC[C@@H](O)COc6cccc(OC(F)(F)C(F)F)c6)cc[nH]c5=O)[nH]c4cc3C2=O)CC1 ... 5.30 to 6.30
4. C[C@H]1C[C@H](C(CC#N)n2cc(-c3ncnc4[nH]ccc34)cn2)C1 (single isomer, unassigned) ... > 9.00
5. CC(C)NC(=O)c1ccc(Nc2ncnc(-c3ccc(O[C@@H]4CCN(C(=O)CO)C4)c(C#N)c3)n2)cc1 ... 6.22
6. C[C@@H]1C[C@@H](Oc2ccc(-c3ncnc(Nc4ccc(N5CCN(C6COC6)CC5)cc4)n3)cc2C#N)CCN1C(=O)[C@@H](C)O ... ≤ 6.00
7. CCCN(Cc1cc(C)ccc1N(C)S(C)(=O)=O)c1nc(-c2cc(F)c(O)cc2CC)cc2[nH]ncc12 ... 7.15
